// data source = ChEMBL document CHEMBL4177599

MIC overview
System: Mycobacterium tuberculosis
PROTOCOL DETAILS: Antitubercular activity against Mycobacterium tuberculosis H37Rv ATCC 27294 after 10 days under low oxygen condition followed by incubation under aerobic condition for 28 hrs by LORA
Assay type: functional, organism-based
REPORTED METRIC: MIC (µM)

>>> result_number("O=C(Cn1ccnc1[N+](=O)[O-])Nc1ccc(Oc2ccc(F)cc2)cc1")
61
>>> result_number("N#Cc1ccc(-c2ccc(NC(=O)Cn3cnc([N+](=O)[O-])n3)cc2)cc1")
52.1

* * *

selectivity ratio overview
PROTOCOL DETAILS: in vitro
CONDITION: human, THP1 cells
Description: Selectivity index, ratio of IC50 for human THP1 cells to IC50 for Mycobacterium tuberculosis H37Rv under aerobic condition
REPORTED METRIC: selectivity ratio

>>> result("O=C(Cn1cnc([N+](=O)[O-])n1)N1CCN(Cc2ccc(Cl)c(Cl)c2)CC1")
"> 10"
>>> result("O=C(CCn1cnc([N+](=O)[O-])n1)Nc1cccc(OCc2ccccc2)c1")
"> 10"
>>> result("O=C(CCn1cnc([N+](=O)[O-])n1)Nc1cccc(-c2ccccc2)c1")
"> 10"

* * *

half-life at 1 µM overview
PROTOCOL DETAILS: Half life in human liver S9 microsomes at 1 uM in presence of NADPH by LC-MS/MS analysis
REPORTED METRIC: half-life at 1 µM

>>> result("O=C(Cn1cnc([N+](=O)[O-])n1)N1CCN(Cc2ccc(C(F)(F)F)cc2)CC1")
"> 3 h"
>>> result("O=C(Cn1cnc([N+](=O)[O-])n1)Nc1nc(-c2ccc(F)c(F)c2)cs1")
"> 3 h"
>>> result("O=C(CCn1cnc([N+](=O)[O-])n1)Nc1cccc(-c2ccccc2)c1")
"> 3 h"
>>> result("COc1ccc2c(c1)[C@]13CCCC[C@@H]1[C@H](C2)N(C)CC3 [DEXTROMETHORPHAN]")
"1.54 to 1.59 h"

* * *

MIC overview
System: Mycobacterium tuberculosis
PROTOCOL DETAILS: Antitubercular activity against Mycobacterium tuberculosis H37Rv ATCC 27294 after 10 days under low oxygen condition followed by incubation under aerobic condition for 28 hrs by LORA
Assay type: functional, organism-based
REPORTED METRIC: MIC

>>> result("O=C(CCn1cnc([N+](=O)[O-])n1)Nc1cccc(OCc2ccccc2)c1")
"> 200 µM"
>>> result("CO[C@H]1/C=C/O[C@@]2(C)Oc3c(C)c(O)c4c(O)c(c(/C=N/N5CCN(C)CC5)c(O)c4c3C2=O)NC(=O)/C(C)=C\\C=C\\[C@H](C)[C@H](O)[C@@H](C)[C@@H](O)[C@@H](C)[C@H](OC(C)=O)[C@@H]1C")
"0.022 to 0.18 µM"
>>> result("O=C(Cn1cnc([N+](=O)[O-])n1)Nc1ccc(Oc2ccc(Cl)cc2)cc1")
"> 200 µM"

* * *

IC90 overview
Tested on: Mycobacterium tuberculosis
PROTOCOL DETAILS: Antitubercular activity against luxABCDE expressing Mycobacterium tuberculosis H37Rv infected in human THP1 cells measured after 3 days by luminescence assay
Assay type: functional, organism-based
CONDITION: THP-1, 72 h
REPORTED METRIC: IC90 (µM)

>>> result_number("O=C(CCn1cnc([N+](=O)[O-])n1)Nc1ccc(Oc2ccccc2)cc1")
17
>>> result_number("O=C(Cn1cnc([N+](=O)[O-])n1)N1CCN(Cc2ccc(Cl)c(Cl)c2)CC1")
6.7
>>> result_number("O=C(CCn1cnc([N+](=O)[O-])n1)Nc1ccc(Oc2ccc(Cl)cc2)cc1")
10
>>> result_number("O=C(Cn1cnc([N+](=O)[O-])n1)N1CCN(C(c2ccccc2)c2ccc(Cl)cc2)CC1 (centres undefined)")
11

* * *

IC50 overview
Test system: THP-1
PROTOCOL DETAILS: Cytotoxicity against human THP1 cells after 3 days by luminescence assay
Type: cell-based
CONDITION: THP-1, 72 h
REPORTED METRIC: IC50

>>> result("O=C(CCn1cnc([N+](=O)[O-])n1)Nc1cccc(-c2ccccc2)c1")
"> 50 µM"
>>> result("O=C(Cn1cnc([N+](=O)[O-])n1)N1CCN(Cc2ccc(Cl)c(Cl)c2)CC1")
"> 50 µM"
>>> result("O=C(CCn1cnc([N+](=O)[O-])n1)Nc1cccc(OCc2ccccc2)c1")
"> 50 µM"

* * *

MIC overview
System: Mycobacterium tuberculosis
PROTOCOL DETAILS: Antitubercular activity against Mycobacterium tuberculosis H37Rv ATCC 27294 after 10 days under low oxygen condition followed by incubation under aerobic condition for 28 hrs by LORA
Format: functional, organism-based
REPORTED METRIC: MIC

>>> result("CC(O)(Cn1cnc([N+](=O)[O-])n1)c1ccc(-c2ccc(C#N)cc2)cc1 (stereo not drawn)")
"> 200 µM"
>>> result("O=C(CCn1cnc([N+](=O)[O-])n1)Nc1cccc(-c2ccccc2)c1")
"> 200 µM"
>>> result("O=C(Cn1cnc([N+](=O)[O-])n1)Nc1ccc(Oc2ccccc2)cc1")
"> 200 µM"
